Experiment: soluble on expression in E. coli; label from the status in PepcDB or PDB records
metric: soluble on expression in E. coli

query_sequence	soluble on expression in E. coli
MLTDPIADMLTRIRNATRVYKESTDVPASRFKEEILRILAREGFIKGYERVDVDGKPYLRVYLKYGPRRQGPDPRPEQVIHHIRRISKPGRRVYVGVKEIPRVRRGLGIAILSTSKGVLTDREARKLGVGGELICEVW	soluble
MDKQSLHETAKRLALELPFVELCWPFGPEFDVFKIGGKIFMLSSELRGVPFINLKSDPQKSLLNQQIYPSIKPGYHMNKKHWISVYSGEEISEALLRDLINDSWNLVVDGLAKRDQKRVRPG	not soluble
MQFNNKPLIGVVHLPPLPGSPGYKGELDEVIDRAISDAAKYQEAGFDAIILENYGDFPYSKTVGKETVSAFSVVANEVKREIALPLGINVLRNDCIAAYSIAYSIKADFIRVNVLTGVAFTDQGIVEGCARELAELRTRLPSRIDVLADVHVKHATHFSNFENALLDTIERGGADAVIVTGSRTGSEVDIQELITAKRISPVPVLVGSGVNPRNIKLFWRYSDGFIVGTWVKEGGRTINEVSIERATKLAKLVKSLREGLEHHHHHH	not soluble
MSVSHAQLKAFHAVAVYGSFTRAAERLFLTQPAVSDQVRKLEERYGVLLFHRNKRSVRLSELGERLLAVTQRLFAIEAEAEELLSASSALQTGTLTLAVDAPVHVLPQIARFCERYPGIAVRVETGNTDESLQRLFSYQADLALLGRDVSDERLLSLTLRNDPIVAFVSLSHPWAGRESIRLADLDDMPLVLREQGSVTRQTLEEEMSRAGLRICPAIQVEGREASREAVVAGIGVGVVSAAEFGADTRVHALPIVDCQRRLTETLVCLREQRSRRIVETFLDLVGEDLPAPS	not soluble
MGSDKIHHHHHHSKDKKSTDTKQTETKKTAKTDGTMTDGTYKLEEKNFDDKGWKGFMSIEVKDGKITKANYDYKNKDGKLKSEDADYEKAMKDKVGTGPQEYLKQLSDSLVKGQSASSVEVVSGATHSSDAFINYANQLIQAAQKADTTTISINNLAKMEDGTYKLEEQNYAHGYRVVFSMDVKDGKITKSDYNYVDKDGKLKSDDADYEKNMKAKSGTGPKEYIPALNKSLVEKQDVAAVDTVSGATNSSNQFKIYAAQLQNAAQNGNTDTIKVYNLVEAE	not soluble
MAHHHHHHMAVLIKNNEASLVDMAVQDFIKLGIDGVYTTMKTVVSFEYIFNFTSHMRNLHKYSTNFLELQINGHNKECVTNILQNLTLENIRKSTSTSIKAGFEFINTLNDDIKKKYFSENLNYMVMVTITWDIHTDNRIPSNEPFSILCYIKCLPKHSNNVQIDIMCGERKTPNIKYSNVFDVRNKMLKLKSEDSHEVVLYNEKEEITEGLTCNFFCFFNDTLYTAKDELVLKGTMREQIIQICEEVGITLKRKVST	not soluble

Now for a further sequence.
Input: Supply soluble on expression in E. coli value. Item: `KDMFNTKSSNGKLRIEDASHNARKLGLAPSSTDEKKIRDLYGDSLTYEQYLEYLTMCVHDRDNMEELIKMFSHFDNNSSGFLTKNQMKNILTTWGDALTEQEANDALNAFSSEDRINYKLFCEDIL`
Output: soluble

FYI, the data here is from the DeepSol protein solubility set.
